B1: Peroxisome proliferator-activated receptor delta, residues 71 to 145; numbered along this chain, Q03181 (parent)
chain: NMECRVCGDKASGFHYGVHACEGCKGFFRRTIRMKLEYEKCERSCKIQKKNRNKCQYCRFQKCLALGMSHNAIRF

Variants of: B1
TEST_SUMMARY: abundance fitness (aPCA) (normalised: wild type 0, dead -1); higher = more abundant; growth selection in yeast, the domain comes from the species named
TEST_CONTEXT: Homo sapiens
Given measured abundance fitness, output true if it is greater than or equal to -0.3 and false if not.

Request: abundance fitness >= -0.3 for NMECRVCGDKASGFHYGVHACEGCKGFFRRTIRMKLEYEKCERSCKIQKKNRWKCQYCRFQKCLALGMSHNAIRF [N53W] ?
Response: true

Next up:
Request: abundance fitness >= -0.3 for NMECRVCGDKASGFHYGVHACEGCKGFRRRTIRMKLEYEKCERSCKIQKKNRNKCQYCRFQKCLALGMSHNAIRF [F28R] ?
Response: false

These measurements were taken from the Human Domainome abundance scans (Beltran et al. 2025).
